assay.comment: Inhibition of Hepatitis C virus full-length NS3/4A protease assessed as quenched-fluorogenic RET-S1 substrate cleavage incubated for 10 mins prior to substrate addition by FRET analysis
Design: species or system Hepacivirus hominis
*1 amine or outer side, *2 acyl side, *3 side chain or, on linkers, in order; H or OH if unused. Where a SMILES comes first, the peptide text is derived from it. Side-chain parts run from the residue outwards. [ ]: non-standard residue; d: D form. The star is where a group is joined. Ac3c(1R,2S-2-vinyl) = C=C[C@@H]1C[C@]1(N)C(=O)O; Hyp = O=C(O)[C@@H]1C[C@@H](O)CN1; Chg = N[C@H](C(=O)O)C1CCCCC1; Pyrrolidide = C1CCN(*)C1; CO = O=C([*:1])[*:2]
Exercise: state measured pIC50 for each of the compounds provided.
Numbers only, as −log10 of the molar value.

CC(C)(C)OC(=O)N[C@H]1CCCCC/C=C\[C@@H]2C[C@@]2(C(=O)O)NC(=O)[C@@H]2C[C@@H](OC(=O)N3Cc4ccc(Cl)cc4C3)CN2C1=O	6.96
CC(C)(C)OC(=O)N[C@H]1CCCCC/C=C\[C@@H]2C[C@@]2(C(=O)NS(=O)(=O)N2CCCC2)NC(=O)[C@@H]2C[C@@H](OC(=O)N3Cc4ccccc4C3)CN2C1=O	8.59
CCCC1(S(=O)(=O)NC(=O)[C@@]23C[C@H]2/C=C\CCCCC[C@H](NC(=O)OC(C)(C)C)C(=O)N2C[C@H](OC(=O)N4Cc5ccccc5C4)C[C@H]2C(=O)N3)CC1	8.52
CC(C)Nc1ccc2c(c1)CN(C(=O)O[C@@H]1C[C@H]3C(=O)N[C@]4(C(=O)NS(=O)(=O)C5CC5)C[C@H]4/C=C\CCCCC[C@H](NC(=O)OC(C)(C)C)C(=O)N3C1)C2	8.37
CC(C)(C)OC(=O)N[C@H]1CCCCCC[C@@H]2C[C@@]2(C(=O)NS(=O)(=O)C2CC2)NC(=O)[C@@H]2C[C@@H](OC(=O)N3Cc4cccc(F)c4C3)CN2C1=O	8.82
CC(C)(C)OC(=O)N[C@H]1CCCCC/C=C\[C@@H]2C[C@@]2(C(=O)NS(=O)(=O)C2CC2)NC(=O)[C@@H]2C[C@@H](NC(=O)c3nc4ccccc4[nH]3)CN2C1=O	8.19
CC(C)(C)OC(=O)N[C@H]1COCCCCC[C@@H]2C[C@@]2(C(=O)NS(=O)(=O)C2CC2)NC(=O)[C@@H]2C[C@@H](OC(=O)N3Cc4cccc(F)c4C3)CN2C1=O	8.92
CC(C)(C)OC(=O)N[C@H]1CCCCC/C=C\[C@@H]2C[C@@]2(C(=O)NS(=O)(=O)C2CC2)NC(=O)[C@@H]2C[C@@H](OC(=O)N3Cc4cccc(F)c4C3)CN2C1=O	9.00

Provide the reported pIC50 of each entry below, same order.
1. C=C[C@@H]1C[C@]1(NC(=O)[C@@H]1C[C@@H](OC(=O)N2CCCC2)CN1C(=O)[C@@H](NC(=O)[C@@H](NC(C)=O)C1CCCCC1)C(C)C)C(=O)O (Ac-[Chg]V[Hyp]([CO-Pyrrolidide])[Ac3c(1R,2S-2-vinyl)]-OH)
2. CC(C)(C)OC(=O)N[C@H]1CCCCC/C=C\[C@@H]2C[C@@]2(C(=O)NS(=O)(=O)Nc2ccc(C(F)(F)F)cc2)NC(=O)[C@@H]2C[C@@H](OC(=O)N3Cc4ccccc4C3)CN2C1=O

1. 4.83
2. 8.01

Attribution: ChEMBL document CHEMBL3120136
